- ASSAY PROTOCOL: Cytotoxicity against human THLE3 cells assessed as reduction in cell viability after 48 hrs by Alamar blue assay
- Format: cell-based
Sorting guide: entries reporting CC50 at 48 h beneath 80 µM go in the Condition met pile, the rest go in the Condition not met pile.

Here are 3 compounds together with their reported answers.
>  <STRUCTURE>
O=S(=O)(Nc1ccc2oc(-c3ccccc3)nc2c1)c1cccs1

>  <GROUP>
Condition met

$$$$
>  <STRUCTURE>
O=[N+]([O-])c1cc(S(=O)(=O)Nc2ccc3oc(-c4ccccc4)nc3c2)ccc1Cl

>  <GROUP>
Condition met

$$$$
>  <STRUCTURE>
O=S(=O)(Nc1ccc2oc(-c3ccccc3)nc2c1)c1ccccc1F

>  <GROUP>
Condition met

$$$$

Exam item: For `O=S(=O)(Nc1ccc(-c2nc3ccccc3o2)cc1)c1cccc(F)c1` , is the recorded CC50 at 48 h below the cut-off of 80 µM?
Marked response: Condition not met

Exam item: Is it true that CC50 at 48 h reported for `O=S(=O)(Nc1ccc2oc(-c3ccccc3)nc2c1)c1ccccc1C(F)(F)F` is less than 80 µM?
Marked response: Condition met

Exam item: Please state whether CC50 at 48 h is below 80 µM for `O=S(=O)(Nc1ccc(-c2nc3ccccc3o2)cc1)c1ccccc1C(F)(F)F`
Marked response: Condition not met
